Tested on: KM12
Experiment: NCI tumour cell line growth inhibition, 48 h
Activity calls are given as the source filed them. No stated cut-off is given here; in the data, active = GI50 up to about 1.1 µM and inactive = higher.
Classes used: active, inactive

- compound_structure_string: "COc1cc(O)c(C(=O)/C=C/c2ccc(O)cc2)cc1Oc1ccc(C(=O)/C=C/c2ccc(O)cc2)c(O)c1"
  discrete_label: "inactive"
- compound_structure_string: "O=C(Cc1ccccc1)Oc1ccc2c(-c3ccccc3)c(C(=O)Nc3ccc(Cl)cc3)c(=O)oc2c1"
  discrete_label: "inactive"
- compound_structure_string: "CC(C)=CCC[C@@H](C)C1=C(O)C(=O)C(C)=C(Nc2ccccc2Cl)C1=O"
  discrete_label: "inactive"
- compound_structure_string: "COc1cc2c(cc1OC)C(=O)/C(=C/c1cc(C)c(O)c(C)c1)C2"
  discrete_label: "active"
